tested on: P388 leukemia ip, CD2F1 mice, survival T/C; test: NCI In Vivo Anticancer Drug Screen. Data for tumor model P388 Leukemia (intraperitoneal) in CD2F1 (CDF1) mice; details: endpoint: median survival time; dose: 12.5 mg/kg/injection; schedule: Q01DX009 (ip); vehicle: Klucel (hydroxypropylcellulose) (HPC); higher = longer survival
Inconclusive results and toxic doses are left out.
measure: T/C

>>> value_measured("NNC(=O)c1ccc(NC(=O)CSc2nc3ccccc3s2)cc1")
"99 % of control"
>>> value_measured("OCC1OC(n2cnc3c(NO)ncnc32)CC1O (stereo not drawn)")
"100 % of control"
>>> value_measured("CC1=CC(=O)C(/C=C(\\C)[N+](=O)[O-])=CC1=O")
"97 % of control"
>>> value_measured("COc1cc(O)c2c(c1)C(=O)c1cc3c(c(O)c1C2=O)C(O)C(OC)C(C)(O)C3=O (stereo not drawn)")
"105 % of control"
>>> value_measured("c1ccc(C2c3ccccc3C(c3ccccc3)(c3ccccc3)c3ccccc32)cc1")
"91 % of control"
>>> value_measured("c1cc[c]([Bi]([c]2ccccc2)[c]2ccccc2)cc1")
"103 % of control"
>>> value_measured("O=C1CSc2ccccc2N1")
"105 % of control"
>>> value_measured("CCc1ccccc1N1CCN(C(=O)c2cc(OC)c(OC)c(OC)c2)CC1")
"95 % of control"
